TEST_NAME: method code SF-CR+AS, from Fauchere, J.; Pliska, V. (1983). Hydrophobic parameters of aminoacid side chains from the partitioning of N-acetylaminoacid amides. Eur J Med Chem, 18(4)369-375.
ASSAY_SETUP: pH 7.1
MEASUREMENT_KIND: logD

1. CC(=O)N[C@H](CS)C(N)=O
2. CC(=O)NC(=O)C(N)CSSCC(N)C(=O)NC(C)=O (configuration not stated)
Which item exceeds the other in logD, 1 or 2 ? The response must carry the label of the picked entry. 1
(1: -0.29, 2: -1.7)

* * *

TEST_NAME: method code SF-RC, from Fauchere, J.; Pliska, V. (1983). Hydrophobic parameters of aminoacid side chains from the partitioning of N-acetylaminoacid amides. Eur J Med Chem, 18(4)369-375.
ASSAY_SETUP: pH 7.1
MEASUREMENT_KIND: logD

Guide cases for logD, answers given:
| MOLECULE | QUANTITATIVE_READOUT |
| --- | --- |
| CC(=O)NC(C(N)=O)C(C)O (stereo not given) | -1.57 |
| CC(=O)N[C@@H](CO)C(N)=O | -1.87 |

I. CC(=O)NC(CCC(N)=O)C(N)=O (stereo not given)
II. CCC(C)C(NC(C)=O)C(N)=O (stereo not given)
III. CC(=O)N1CCC[C@H]1C(N)=O
IV. CC(=O)NC(CC12CC3CC(CC(C3)C1)C2)C(N)=O (stereo not given)
V. CC(=O)N[C@@H](CC(C)C)C(N)=O
# rank_down: sort by logD, max first # answer = labels listed in requested order IV, II, V, III, I
(IV: 1.9, II: -0.03, V: -0.13, III: -1.34, I: -2.05)

1. CC(=O)N[C@@H](CC(N)=O)C(N)=O
2. CC(=O)N[C@H](C(N)=O)C(C)C
Which item exceeds the other in logD, 1 or 2 ? The response must carry the label of the picked entry. 2
(2: -0.61, 1: -2.41)
